Entry source: patent US20230265198A1

The binders listed here are annotated with their Kd.
Molecular target: neuropilin-1 (NRP1), analyte in SPR (UniProt O14786 22-644, limits assumed)
Test: SPR, Carterra LSA, antibody coupled
# do not omit the unit; it follows the number

Would you please look over these solved cases?
# Binder, Measured attribute, Observed
data = [
    ("NRP1-33 (VHH) VHH: EVQLVESGGGLVQPGGSLRLSCAASGRTFSSGTMGWFRQASGKEREFVARINSDGSTNYADSVKGRFTISADNSKNTAYLQMNSLKPEDTAVYYCAKWSSSWYGYYYYGMDVWGQGTLVTVSS", "Kd", "10.8 nM"),
    ("NRP1-204 (antibody, IgG2, V domains shown) VH: EVQLLESGGGLVQPGGSLRLSCAASGFTFSAFAMSWVRQAPGKGLEWVSGTSGSGGSTYYADSVKGRFTISRDNSKNTLYLQMNSLRAEDTAVYYCARHRAYSYGLDYWGQGTLVTVSS VL: DIQMTQSPSSLSASVGDRVTITCRARQSISTYLNWYQQKPGKAPKLLIYSASTLESGVPSRFSGSGSGTDFTLTISSLQPEDFATYYCQQSYRTPWTFGGGTKVEIK", "Kd", "408000 nM"),
    ("NRP1-25 (VHH) VHH: EVQLVESGGGLVQPGGSLRLSCAASGRTSNIYAMGWFRQAPGKERELVAAIRWSGVETYYADSVKGRFTISADNSKNTAYLQMNSLKPEDTAVYYCAADRMYRPVGNQYDWGQGTLVTVSS", "Kd", "831 nM"),
    ("NRP1-115 (antibody, IgG2, V domains shown) VH: EVQLLESGGGLVQPGGSLRLSCAASGFTFGHYEMDWVRQAPGKGLEWVSSIDDRGRYTYYADSVKGRFTISRDNSKNTLYLQMNSLRAEDTAVYYCARSKIAFDYWGQGTLVTVSS VL: DIQMTQSPSSLSASVGDRVTITCRASQNIRSYLNWYQQKPGKAPKLLIYGRNKRPSGVPSRFSGSGSGTDFTLTISSLQPEDFATYYCQQSYENPLTFGQGTKVEIK", "Kd", "87.4 nM"),
    ("NRP1-18 (VHH) VHH: EVQLVESGGGLVQPGGSLRLSCAASGFRFSSYGMGWFRQAPGKEREFVAFISGNPSRTYYADSVKGRFTISADNSKNTAYLQMNSLKPEDTAVYYCAARPYQKYNWASASYNWGQGTLVTVSS", "Kd", "290 nM"),
    ("NRP1-8 (VHH) VHH: EVQLVESGGGLVQPGGSLRLSCAASGFPLDDYAMGWFRQAPGKEREFVAAINWSGGSAVYADSVKGRFTISADNSKNTAYLQMNSLKPEDTAVYYCMRGGSYGDYGGYWGQGTLVTVSS", "Kd", "91.1 nM"),
]

API: the following record is the query input.
Return reported Kd; argument: NRP1-4 (VHH) VHH: EVQLVESGGGLVQPGGSLRLSCAASGNIFINNAMGWFRQAPGKERELVAAITSSSGRRWYADSVKGRFTISADNSKNTAYLQMNSLKPEDTAVYYCAARRIVNVEGAYRDWGQGTLVTVSS
183 nM
